Entries annotated with measured hERG current change (%, negative = inhibition) at 10uM
target: human ether-à-go-go-related gene (hERG) potassium channel (human); assay: primary screen, population patch clamp on CHO cells stably expressing hERG; higher = less effect of the substance;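 also: peak tail current of the secondary pulse compared with the same well before compound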
Among all 310,000 compounds or so, about 14,000 (4.5%) showed an effect of 50% or more. The effect is printed as a negative number. The sample holds strong results, similar compounds and a random draw of the others, so the mix is not that of the screen.
State just the number; it will be interpreted in %.

Look over these answered cases.
CCCC(=O)Nc1ccc2nc(SCC(=O)N3CCCC3)sc2c1; 2.52
CN(CC(O)COCc1ccc2c(c1)OCO2)C1CCCCC1.Cl (centres unmarked); -20.6
CCN(Cc1ccc(OC)c(F)c1)C(=O)c1cc2ccccc2o1; -24.7
CCn1c(SCC(=O)NCc2ccc3c(c2)OCO3)nnc1-c1ccco1; -5.03
COc1cccc(N(C(=O)c2sc(C)nc2C)C(C(=O)NCC2CCCO2)c2ccccc2)c1 (centres unmarked); -8.87
Cc1ccccc1-c1nnc(SCC(=O)NCc2ccc3c(c2)OCO3)n1C; -8.1

INPUT: Give the measured hERG current change (%, negative = inhibition) at 10uM for "Cc1ccc(CNC(=O)c2ccccc2NS(=O)(=O)c2ccc(Cl)nc2)cc1"
OUTPUT: 12.6

INPUT: Give the measured hERG current change (%, negative = inhibition) at 10uM for "O=C(CSc1nnc(-c2cccnc2)n1-c1ccccc1)Nc1ccc2c(c1)OCO2"
OUTPUT: -6.74

INPUT: Give the measured hERG current change (%, negative = inhibition) at 10uM for "O=C(Nc1ccc2c(c1)OCO2)N1CCN(c2ccc(F)cc2)CC1"
OUTPUT: -28

----------
Target: human ether-à-go-go-related gene (hERG) potassium channel (human);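 also: peak tail current of the secondary pulse compared with the same well before compound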
Experiment: primary screen, population patch clamp on CHO cells stably expressing hERG; higher = less effect of the substance
Method: Briefly, Chinese hamster ovary (CHO) cells stably expressing the hERG channel were dislodged from tissue culture flasks and dispensed into PPC plates. […] During the recording, background leak currents were estimated by a 100 ms step to -80 mV from an initial holding potential of -70 mV and subtracted from the subsequent current measurement. The campaign was conducted in two phases using slight differences in recording protocol. […]
Among all 310,000 compounds or so, about 14,000 (4.5%) showed an effect of 50% or more. The effect is printed as a negative number. For the sample, strong results were picked, then their nearest neighbours and some compounds at random.
Entries annotated with measured hERG current change (%, negative = inhibition) at 10uM

Look over these answered cases.
Cc1c(S(=O)(=O)N2CCCC(C)C2)c(=O)n(C)c(=O)n1C (stereo not drawn); -2.74%
CSc1ncc(C(=O)Nc2cccc(Cl)c2)c(C)n1; 10.9%
CC(C)C(=O)N(Cc1ccc2c(c1)OCO2)Cc1ccccn1.Cl; -7.53%
CCOc1ccccc1NC(=O)NCc1ccc2c(c1)OCO2; 22.4%
COC(=O)C1=C(c2c(C)noc2C)C[C@@H]2CC[C@H]1N2C(=O)N1CCCCC1; 17.1%

Attention now turns to another entry.
INPUT: Look up and report measured hERG current change (%, negative = inhibition) at 10uM (human ether-à-go-go-related gene (hERG) potassium channel (human)) for the following molecule: CC(C)CCNC(=O)C1CCCN(S(=O)(=O)c2ccc(F)cc2)C1 (stereo not drawn)
OUTPUT: 6.85%

----------
molecular target: human ether-à-go-go-related gene (hERG) potassium channel (human, UniProt Q12809); assay: primary screen, population patch clamp on CHO cells stably expressing hERG; higher = less effect of the substance;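 also: peak tail current of the secondary pulse compared with the same well before compound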
Sequence (Q12809 whole entry, looked up): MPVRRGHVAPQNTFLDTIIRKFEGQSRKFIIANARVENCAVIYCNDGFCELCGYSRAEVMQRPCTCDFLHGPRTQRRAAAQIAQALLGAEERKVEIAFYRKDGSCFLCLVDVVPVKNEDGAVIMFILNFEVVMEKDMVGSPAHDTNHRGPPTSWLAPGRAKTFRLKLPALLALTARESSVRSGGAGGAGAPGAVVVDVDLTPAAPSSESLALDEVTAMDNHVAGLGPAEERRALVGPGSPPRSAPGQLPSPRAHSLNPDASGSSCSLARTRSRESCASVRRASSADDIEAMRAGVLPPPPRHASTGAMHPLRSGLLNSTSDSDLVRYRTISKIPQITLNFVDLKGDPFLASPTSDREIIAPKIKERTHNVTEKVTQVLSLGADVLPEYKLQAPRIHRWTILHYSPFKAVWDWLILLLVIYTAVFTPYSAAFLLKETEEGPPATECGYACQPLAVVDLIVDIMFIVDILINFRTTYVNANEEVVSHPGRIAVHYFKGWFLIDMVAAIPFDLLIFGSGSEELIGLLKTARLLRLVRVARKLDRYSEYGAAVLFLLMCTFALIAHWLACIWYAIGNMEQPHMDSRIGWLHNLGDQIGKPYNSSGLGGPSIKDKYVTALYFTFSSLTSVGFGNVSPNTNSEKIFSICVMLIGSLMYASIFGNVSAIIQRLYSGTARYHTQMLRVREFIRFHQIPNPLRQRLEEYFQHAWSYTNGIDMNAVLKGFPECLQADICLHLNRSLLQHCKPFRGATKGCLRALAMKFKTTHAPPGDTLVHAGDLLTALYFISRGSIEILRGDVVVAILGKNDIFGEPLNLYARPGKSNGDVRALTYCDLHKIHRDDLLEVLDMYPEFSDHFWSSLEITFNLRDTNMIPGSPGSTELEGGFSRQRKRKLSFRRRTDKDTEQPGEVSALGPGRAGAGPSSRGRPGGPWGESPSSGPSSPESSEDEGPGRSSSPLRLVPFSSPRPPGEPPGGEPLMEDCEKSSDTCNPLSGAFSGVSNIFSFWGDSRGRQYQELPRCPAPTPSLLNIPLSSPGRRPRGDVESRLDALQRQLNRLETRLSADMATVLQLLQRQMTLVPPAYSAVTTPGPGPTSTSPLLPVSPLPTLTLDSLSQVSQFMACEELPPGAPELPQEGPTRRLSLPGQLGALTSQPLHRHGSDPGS
The campaign covered roughly 310,000 compounds. About 14,000 (4.5%) showed an effect of 50% or more. The effect is printed as a negative number. What follows is part of a selection rich in strong results, with near analogues and random picks from the rest.
RECORDED METRIC: hERG current change (%, negative = inhibition) at 10uM (%)
State just the number; it will be interpreted in %.

Look over these answered cases.
O=C1CCN(CCc2ccccc2)CCN1CCSc1ccc(Br)cc1; -80.1
CC(C)n1cc(CN2CCC(C(=O)Nc3ccc(Oc4ccccc4F)cc3)CC2)cn1; -76.1
CCn1c(SCC(=O)Nc2cccc(C)c2)nc2nc3c(cc2c1=O)COC(C)(C)C3; -23.1
CCCN(CC(=O)Nc1ccc(Cl)cc1Cl)C(=O)CC(NC(C)=O)c1ccccc1 (stereo not shown); 0.715
O=C(CCc1nnc(-c2ccsc2)o1)NCc1ccccc1OC(F)(F)F; 3.76
Br.CCCCCCCCCn1ccc(=N)cc1; -66
CCN(CC(=O)Nc1c(F)cccc1F)C(=O)Cc1c(C)nc2ccccc2c1C; -55.1
CCOc1ccc(S(=O)(=O)n2ccnc2C)cc1; 14.5

INPUT: Look up and report measured hERG current change (%, negative = inhibition) at 10uM (human ether-à-go-go-related gene (hERG) potassium channel (human, UniProt Q12809)) for the following molecule: "O=C(CSc1nnc(NC(=O)c2ccccc2F)s1)NC1CC1"
OUTPUT: 19.2

INPUT: Look up and report measured hERG current change (%, negative = inhibition) at 10uM (human ether-à-go-go-related gene (hERG) potassium channel (human, UniProt Q12809)) for the following molecule: "COc1cccc(OCCOc2ccc(/C=C3/SC(=S)NC3=O)cc2)c1"
OUTPUT: 23

INPUT: Look up and report measured hERG current change (%, negative = inhibition) at 10uM (human ether-à-go-go-related gene (hERG) potassium channel (human, UniProt Q12809)) for the following molecule: "Br.CCCCCCCCn1ccc(=N)cc1"
OUTPUT: -27

INPUT: Look up and report measured hERG current change (%, negative = inhibition) at 10uM (human ether-à-go-go-related gene (hERG) potassium channel (human, UniProt Q12809)) for the following molecule: "COc1ccc(CC(=O)Nc2ccc(-c3csc(C)n3)cc2)cc1"
OUTPUT: 7.89

INPUT: Look up and report measured hERG current change (%, negative = inhibition) at 10uM (human ether-à-go-go-related gene (hERG) potassium channel (human, UniProt Q12809)) for the following molecule: "CCCCCn1ccc(=N)cc1.I"
OUTPUT: 11.7

INPUT: Look up and report measured hERG current change (%, negative = inhibition) at 10uM (human ether-à-go-go-related gene (hERG) potassium channel (human, UniProt Q12809)) for the following molecule: "O=C(Nc1ccccc1)c1nccn1Cc1ccc(F)cc1"
OUTPUT: -10.9

INPUT: Look up and report measured hERG current change (%, negative = inhibition) at 10uM (human ether-à-go-go-related gene (hERG) potassium channel (human, UniProt Q12809)) for the following molecule: "CN1CCC(=O)N(CCSc2ccc(Br)cc2)CC1"
OUTPUT: -25.5

INPUT: Look up and report measured hERG current change (%, negative = inhibition) at 10uM (human ether-à-go-go-related gene (hERG) potassium channel (human, UniProt Q12809)) for the following molecule: "Br.CCCCCCCCCCn1ccc(=N)cc1"
OUTPUT: -72.9

INPUT: Look up and report measured hERG current change (%, negative = inhibition) at 10uM (human ether-à-go-go-related gene (hERG) potassium channel (human, UniProt Q12809)) for the following molecule: "CCCN(CC(=O)Nc1ccccc1C)C(=O)CCl"
OUTPUT: -0.969

INPUT: Look up and report measured hERG current change (%, negative = inhibition) at 10uM (human ether-à-go-go-related gene (hERG) potassium channel (human, UniProt Q12809)) for the following molecule: "CCn1c(SCC(=O)Nc2ccc(OC)cc2)nc2nc3c(cc2c1=O)COC(C)(C)C3"
OUTPUT: -72.6

INPUT: Look up and report measured hERG current change (%, negative = inhibition) at 10uM (human ether-à-go-go-related gene (hERG) potassium channel (human, UniProt Q12809)) for the following molecule: "CCCN1CCC(=O)N(CCOc2ccccc2)CC1"
OUTPUT: -6.3

INPUT: Look up and report measured hERG current change (%, negative = inhibition) at 10uM (human ether-à-go-go-related gene (hERG) potassium channel (human, UniProt Q12809)) for the following molecule: O=C(Nc1ccc(O)c(C(=O)O)c1)c1ccc2c(c1)C(=O)N(CC1CCCO1)C2=O (stereo not shown)
OUTPUT: 6.21

----------
target: human ether-à-go-go-related gene (hERG) potassium channel (human); assay: primary screen, population patch clamp on CHO cells stably expressing hERG; higher = less effect of the substance;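 also: peak tail current of the secondary pulse compared with the same well before compound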
Among all 310,000 compounds or so, about 14,000 (4.5%) showed an effect of 50% or more. The effect is printed as a negative number. The sample as a whole holds a higher share of strong results than the screen did.
RECORDED METRIC: hERG current change (%, negative = inhibition) at 10uM (%)
State just the number; it will be interpreted in %.

Look over these answered cases.
C#CCNC(=O)C1=C[C@@H](c2ccccc2)C[C@@H](OCCCCO)O1; -13.4
CCCS(=O)(=O)N1CCCC(C(=O)NCCCN(C)c2ccccc2)C1 (stereo not shown); 5.82
CSc1ccc(-c2sc(Nc3ccccc3)n[n+]2-c2ccc(F)cc2)cc1.[Cl-]; 1.55
Cc1ccc(CN2CC(C(=O)N3CCN(S(=O)(=O)c4ccc(C)cc4C)CC3)CC2=O)cc1 (stereo not shown); -28.2
CCOC(=O)N1CCN(S(=O)(=O)c2ccc(C)c(C(=O)NC3CCCCC3)c2)CC1; 1.42

INPUT: Give the measured hERG current change (%, negative = inhibition) at 10uM for "Cc1cccc(-c2sc(Nc3ccccc3)n[n+]2-c2ccc(F)cc2)c1.[Cl-]"
OUTPUT: 21.7

INPUT: Give the measured hERG current change (%, negative = inhibition) at 10uM for "Cc1ccc(CCNS(=O)(=O)c2cc3c(cc2C)n(C)c(=O)c(=O)n3C)cc1"
OUTPUT: -30.8

INPUT: Give the measured hERG current change (%, negative = inhibition) at 10uM for Cc1n[nH]c(C)c1CCNC(=O)C1CCC(=O)N(CCc2cccc(F)c2)C1 (stereo not shown)
OUTPUT: 9.63

INPUT: Give the measured hERG current change (%, negative = inhibition) at 10uM for "Clc1cccc(-c2sc(Nc3ccccc3)n[n+]2-c2ccccc2)c1Cl.[Cl-]"
OUTPUT: 5.53

INPUT: Give the measured hERG current change (%, negative = inhibition) at 10uM for "CCc1ccc(Nc2n[n+](-c3ccccc3)c(-c3ccc(N(CC)CC)cc3)s2)cc1.[Cl-]"
OUTPUT: -36

INPUT: Give the measured hERG current change (%, negative = inhibition) at 10uM for "CCOC(=O)N1CCN(C(=O)c2ccc(NC(=O)c3ccc(C)cc3)cc2)CC1"
OUTPUT: -13.3

INPUT: Give the measured hERG current change (%, negative = inhibition) at 10uM for "Oc1ccc(-c2sc(Nc3ccccc3)n[n+]2-c2ccc(F)cc2)cc1.[Cl-]"
OUTPUT: -1.63

INPUT: Give the measured hERG current change (%, negative = inhibition) at 10uM for "O=C(O)c1ccc(-c2sc(Nc3ccccc3)n[n+]2-c2ccc(F)cc2)cc1.[Cl-]"
OUTPUT: 2.83

INPUT: Give the measured hERG current change (%, negative = inhibition) at 10uM for "CC(=O)N=c1scc(-c2ccccc2)n1-c1cccc(O)c1"
OUTPUT: 7.32

INPUT: Give the measured hERG current change (%, negative = inhibition) at 10uM for "O=C(Nc1cccc(C(=O)N2CCCCCC2)c1)c1ccco1"
OUTPUT: -14.5
